Quick reference for IC50 among some molecules
- experimental_system: GR (Homo sapiens, UniProt P04150)
- Sequence (P04150 1-777): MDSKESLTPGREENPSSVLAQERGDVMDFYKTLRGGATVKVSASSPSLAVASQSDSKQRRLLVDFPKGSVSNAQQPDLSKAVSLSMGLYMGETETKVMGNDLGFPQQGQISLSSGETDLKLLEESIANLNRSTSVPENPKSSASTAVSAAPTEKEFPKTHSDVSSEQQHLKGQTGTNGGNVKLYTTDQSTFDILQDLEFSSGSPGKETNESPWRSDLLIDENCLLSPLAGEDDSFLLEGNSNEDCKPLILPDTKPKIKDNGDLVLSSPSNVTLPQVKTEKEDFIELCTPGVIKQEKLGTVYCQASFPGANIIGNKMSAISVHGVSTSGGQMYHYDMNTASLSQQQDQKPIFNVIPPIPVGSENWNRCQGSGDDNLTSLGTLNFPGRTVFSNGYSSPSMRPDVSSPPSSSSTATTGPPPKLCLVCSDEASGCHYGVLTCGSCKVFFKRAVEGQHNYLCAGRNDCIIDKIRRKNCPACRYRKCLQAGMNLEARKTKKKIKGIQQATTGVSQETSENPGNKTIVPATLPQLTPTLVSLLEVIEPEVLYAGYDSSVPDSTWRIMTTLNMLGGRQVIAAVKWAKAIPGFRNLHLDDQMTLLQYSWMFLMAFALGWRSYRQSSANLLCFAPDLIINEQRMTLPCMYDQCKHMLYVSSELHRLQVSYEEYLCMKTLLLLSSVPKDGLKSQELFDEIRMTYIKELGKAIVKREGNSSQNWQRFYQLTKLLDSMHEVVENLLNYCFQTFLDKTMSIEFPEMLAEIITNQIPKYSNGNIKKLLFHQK
- protocol_summary: In Vitro GR Luciferase Reporter Assay (antagonist assay)
- condition_summary: CHO-K1-GR-MMTV-Luc reporter cells, 10 nM Dexamethasone, 18-24 hours

Req: Report IC50, nothing else, for this molecule: CC#C[C@]1(O)CC[C@H]2[C@@H]3CCC4=CC(=O)CCC4=C3[C@@H](c3cccc(CC)c3)C[C@@]21C
Resp: < 100 nM

Req: Report IC50, nothing else, for this molecule: CC#C[C@]1(O)CC[C@H]2[C@@H]3CCC4=CC(=O)CCC4=C3[C@@H](c3ccc(Cl)c(OC)c3)C[C@@]21C [drawing 204]
Resp: > 100 nM

Req: Report IC50, nothing else, for this molecule: CC#C[C@]1(O)[C@H](C)C[C@H]2[C@@H]3CCC4=CC(=O)CCC4=C3[C@@H](c3cc(F)c(N(C)C)c(F)c3)C[C@@]21C
Resp: < 100 nM

Req: Report IC50, nothing else, for this molecule: CC#C[C@]1(O)CC[C@H]2[C@@H]3CCC4=CC(=O)CCC4=C3[C@@H](c3ccc(C)c(C)c3)C[C@@]21C [drawing 192]
Resp: < 100 nM

Origin of values: patent US11110103B2
